Test system: IFN induction in cGAMP-stimulated THP1 cells
experimental_protocol: cGAMP stimulated counter cell assay in THP1-Dual cells (THP1(cGAMP) IC50)
Type: cell-based, human
condition_description: Homo sapiens, THP-1; Table 1; counter assay, 10 μM cGAMP stimulation; read-out: THP(cGAMP) IC50
Excerpt: 6.2 Method: Human cGAS Cell Assay and cGAMP Stimulated Counter Cell Assay (THP1(vir) IC50 and THP1(cGAMP) IC50) […] Pathway activity was monitored by measuring the Lucia luciferase activity induced by either DNA stimulated cGAS enzyme activity (measurement of THP1(vir) IC50) or by cGAMP directly (measurement of THP1(cGAMP) IC50, counter assay). […]
Kindly supply the reported IC50 values for the records listed here.
Give bare numbers, in µM.

>  <smi>
Cc1cccc2c1nc1n2[C@@H]2CCN(C[C@H]2C)C(=O)CCCCCC(F)(F)c2nc(c3oc4ccccc4c3n2)N2C[C@H](C[C@H]2C(=O)O)O1

>  <subject_of_test>
IFN induction in cGAMP-stimulated THP1 cells

>  <IC50 / µM>
6

$$$$

Now, please, on to the next compound.
Prompt: Give its IC50 value. Item: `C[C@H]1CN2CC[C@@H]1n1c(nc3ccccc31)O[C@H]1C[C@@H](C(=O)O)N(C1)c1nc(nc3c1oc1ccccc13)C(F)(F)CCCCC(F)(F)C2=O`
Response: 6.6

* * *

Kindly supply the reported pIC50 values for the records listed here.
Test system: IFN induction in dsDNA-stimulated human whole blood
experimental_protocol: Human whole blood assay (hWB IC50), dsDNA stimulated, IFNα2α production
Type: cell-based
condition_description: Table 1
One number for each entry, as −log10 of the molar value.

Observe how each entry below is paired with its result.
>  <smi>
C[C@H]1CN2CC[C@@H]1n1c(nc3cc(Cl)ccc31)O[C@H]1C[C@@H](C(=O)O)N(C1)c1nc(nc3c1oc1ccccc13)CCOCCCC2=O

>  <pIC50>
8.30

$$$$
>  <smi>
C[C@H]1CN2CC[C@@H]1n1c(nc3ccccc31)O[C@H]1C[C@@H](C(=O)O)N(C1)c1nc(nc3c1oc1ccccc13)CCCCCN(C)C2=O

>  <pIC50>
6.73

$$$$
>  <smi>
C[C@@H]1CC(=O)N2CCC(CC2)n2c(nc3ccccc32)O[C@H]2C[C@@H](C(=O)O)N(C2)c2nc(nc3c2oc2ccccc23)CCCO1

>  <pIC50>
7.00

$$$$
>  <smi>
C[C@H]1CN2CC[C@@H]1n1c(nc3cc(Cl)ccc31)O[C@H]1C[C@@H](C(=O)O)N(C1)c1nc(nc3c1oc1ccccc13)COCCOCC2=O

>  <pIC50>
8.52

$$$$
>  <smi>
C[C@H]1CN2CC[C@@H]1n1c(nc3cc(Cl)ccc31)O[C@H]1C[C@@H](C(=O)O)N(C1)c1nc(nc3c1oc1cc(Cl)ccc13)CCOCCCC2=O

>  <pIC50>
7.77

$$$$

Now, please, on to the next compound.
Prompt: Give its pIC50 value. Item: `O=C(O)[C@@H]1C[C@H]2CN1c1nc(nc3c1oc1ccccc13)COCCCCCC(=O)N1CCC(CC1)n1c(nc3cccc(F)c31)O2`
Response: 7.48

* * *

Kindly supply the reported IC50 values for the records listed here.
System: IFN induction in cGAMP-stimulated THP1 cells
experimental_protocol: cGAMP stimulated counter cell assay in THP1-Dual cells (THP1(cGAMP) IC50)
Format: cell-based, human
condition_description: Homo sapiens, THP-1; Table 1; counter assay, 10 μM cGAMP stimulation; read-out: THP(cGAMP) IC50
Give bare numbers, in µM.

>  <compound>
C[C@@H]1CN2CC[C@H]1n1c(nc3ccccc31)O[C@H]1C[C@@H](C(=O)O)N(C1)c1nc(nc3c1oc1ccccc13)CCCCCOC2=O

>  <IC50 (µM)>
8.2

$$$$
>  <compound>
C[C@H]1CN2CC[C@@H]1n1c(nc3ccc(Cl)cc31)O[C@H]1C[C@@H](C(=O)O)N(C1)c1nc(nc3c1oc1ccccc13)C(F)(F)CCCCCC2=O

>  <IC50 (µM)>
11

$$$$
>  <compound>
C[C@H]1CN2CC[C@@H]1n1c(nc3ccccc31)O[C@H]1C[C@@H](C(=O)O)N(C1)c1nc(nc3c1oc1ccccc13)CCCCCN(C)C2=O

>  <IC50 (µM)>
7.3

$$$$
>  <compound>
C[C@H]1CN2CC[C@@H]1n1c(nc3ccccc31)O[C@H]1C[C@@H](C(=O)O)N(C1)c1nc(nc3c1oc1cc(Cl)ccc13)C(F)(F)CCCCCC2=O

>  <IC50 (µM)>
11

$$$$
>  <compound>
C[C@H]1CN2CC[C@@H]1n1c(nc3ccccc31)O[C@H]1C[C@@H](C(=O)O)N(C1)c1nc(nc3c1oc1ccccc13)CCCCCCC2=O (racemic)

>  <IC50 (µM)>
11

$$$$

# per-item lookup of IC50; items listed below
1. Cc1cccc2c1nc1n2[C@H]2CCN(C[C@@H]2C)C(=O)CCCCCC(F)(F)c2nc(c3oc4ccccc4c3n2)N2C[C@H](C[C@H]2C(=O)O)O1
2. C[C@@H]1CCCCC(=O)N2CCC(CC2)n2c(nc3ccccc32)O[C@H]2C[C@@H](C(=O)O)N(C2)c2nc1nc1c2oc2ccccc21
3. C[C@H]1CN2CC[C@@H]1n1c(nc3ccccc31)O[C@H]1C[C@@H](C(=O)O)N(C1)c1nc(nc3c1oc1cc(F)ccc13)C(F)(F)CCCCCC2=O
4. C[C@H]1CN2CC[C@@H]1n1c(nc3cc(Cl)ccc31)O[C@H]1C[C@@H](C(=O)O)N(C1)c1nc(nc3c1oc1cc(Cl)ccc13)CCOCCCC2=O
5. C[C@H]1CN2CC[C@@H]1n1c(nc3ccccc31)O[C@H]1C[C@@H](C(=O)O)N(C1)c1nc(nc3c1oc1ccccc13)CCCC(C)(C)CCC2=O

Response:
1. 4
2. 15
3. 18
4. 9.5
5. 9.5

* * *

Kindly supply the reported IC50 values for the records listed here.
Test system: IFN induction in dsDNA-stimulated human whole blood
experimental_protocol: Human whole blood assay (hWB IC50), dsDNA stimulated, IFNα2α production
Type: cell-based
condition_description: Table 1
Put down the number, then write its unit next to it.

Observe how each entry below is paired with its result.
>  <smi>
C[C@H]1CN2CC[C@@H]1n1c(nc3ccc(Cl)cc31)O[C@H]1C[C@@H](C(=O)O)N(C1)c1nc(nc3c1oc1ccccc13)C(F)(F)CCCCCC2=O

>  <IC50>
15 nM

$$$$
>  <smi>
C[C@H]1CN2CC[C@@H]1n1c(nc3ccccc31)O[C@H]1C[C@@H](C(=O)O)N(C1)c1nc(nc3c1oc1cc(Cl)ccc13)C(F)(F)CCCOCC2=O

>  <IC50>
4 nM

$$$$
>  <smi>
O=C(O)[C@@H]1C[C@H]2CN1c1nc(nc3c1oc1ccccc13)CCCOCC(=O)N1CCC(CC1)n1c(nc3ccccc31)O2

>  <IC50>
41 nM

$$$$
>  <smi>
C[C@H]1CN2CC[C@@H]1n1c(nc3ccccc31)O[C@H]1C[C@@H](C(=O)O)N(C1)c1nc(nc3c1oc1cc(Cl)ccc13)CCOCCCC2=O

>  <IC50>
13 nM

$$$$
>  <smi>
C[C@H]1CN2CC[C@@H]1n1c(nc3ccccc31)O[C@H]1C[C@@H](C(=O)O)N(C1)c1nc(nc3c1oc1ccccc13)C(F)(F)COCCCCC2=O

>  <IC50>
1 nM

$$$$

Now, please, on to the next molecule.
Prompt: Give its IC50 value. Item: `O=C(O)[C@@H]1C[C@H]2CN1c1nc(nc3c1oc1ccccc13)CCOCCCC(=O)N1CCC(CC1)n1c(nc3ccc(F)cc31)O2`
Response: 44 nM

* * *

Kindly supply the reported IC50 values for the records listed here.
subject_of_test: cGAS (Homo sapiens, UniProt Q8N884)
Sequence (Q8N884 whole entry): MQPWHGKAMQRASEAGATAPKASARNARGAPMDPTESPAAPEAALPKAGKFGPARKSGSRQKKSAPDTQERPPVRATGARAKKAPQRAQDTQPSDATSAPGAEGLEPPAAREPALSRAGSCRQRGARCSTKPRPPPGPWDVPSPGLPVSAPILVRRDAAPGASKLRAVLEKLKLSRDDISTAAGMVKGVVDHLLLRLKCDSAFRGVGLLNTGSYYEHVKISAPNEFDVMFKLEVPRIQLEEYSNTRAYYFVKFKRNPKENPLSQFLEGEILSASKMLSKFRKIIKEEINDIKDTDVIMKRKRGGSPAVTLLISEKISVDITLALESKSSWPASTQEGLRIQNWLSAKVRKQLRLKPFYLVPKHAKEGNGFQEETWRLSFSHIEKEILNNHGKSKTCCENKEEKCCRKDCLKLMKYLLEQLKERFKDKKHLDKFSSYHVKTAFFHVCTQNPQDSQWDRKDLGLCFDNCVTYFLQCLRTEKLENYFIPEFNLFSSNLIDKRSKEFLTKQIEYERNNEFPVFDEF
experimental_protocol: Human cGAS enzyme assay (hcGAS IC50, in vitro), cGAMP formation by RapidFire MS
Format: biochemical
Design: HumancGAS (amino acid 1-522) with an N-terminal 6×-His-tag and SUMO-tag; 6xHis (N); SUMO (N); made in house; host or cells: E. coli BL21(DE3) pLysS
condition_description: Table 1; 45 bp dsDNA-activated enzyme
One number for each entry, in nM.

Observe how each entry below is paired with its result.
>  <molecule>
O=C(O)[C@@H]1C[C@H]2CN1c1nc(nc3c1oc1ccccc13)CCOCCCC(=O)N1CCC(CC1)n1c(nc3ccc(F)cc31)O2

>  <subject_of_test>
cGAS (Homo sapiens, UniProt Q8N884)

>  <value_unit>
nM

>  <measured_number>
4.5

$$$$
>  <molecule>
O=C(O)[C@@H]1C[C@H]2CN1c1nc(nc3c1oc1ccccc13)CCCOCC(=O)N1CCC(CC1)n1c(nc3ccccc31)O2

>  <subject_of_test>
cGAS (Homo sapiens, UniProt Q8N884)

>  <value_unit>
nM

>  <measured_number>
7.5

$$$$
>  <molecule>
O=C(O)[C@@H]1C[C@H]2CN1c1nc(nc3c1oc1ccccc13)CCOCCCC(=O)N1CCC(CC1)n1c(nc3cc(F)ccc31)O2

>  <subject_of_test>
cGAS (Homo sapiens, UniProt Q8N884)

>  <value_unit>
nM

>  <measured_number>
5.6

$$$$

# per-item lookup of IC50; items listed below
1. Cc1cccc2c1nc1n2[C@@H]2CCN(C[C@H]2C)C(=O)CCCCCC(F)(F)c2nc(c3oc4ccccc4c3n2)N2C[C@H](C[C@H]2C(=O)O)O1
2. CC1CCc2nc(c3oc4ccccc4c3n2)N2C[C@H](C[C@H]2C(=O)O)Oc2nc3cc(Cl)ccc3n2[C@H]2CCN(C[C@@H]2C)C(=O)CCO1 (stereo partly drawn)
3. C[C@H]1CN2CC[C@@H]1n1c(nc3ccccc31)O[C@H]1C[C@@H](C(=O)O)N(C1)c1nc(nc3c1oc1ccccc13)C(F)(F)COCCCCC2=O

Response:
[100, 4.9, 2.1]
